Catalogue of median fluorescence readings, one per entry.
Experimental system: T1, FZD3 cysteine-rich domain (CRD), MYC-tagged and GPI-anchored on CHO cells (human, UniProt Q9NPG1 24-150, GPI anchor)
T1 construct: domain: cysteine-rich domain (CRD); also called FZD3 CRD; CHO-myc-FZDGPI; not shown: MYC tag and GPI anchor signal
T1 sequence (looked up): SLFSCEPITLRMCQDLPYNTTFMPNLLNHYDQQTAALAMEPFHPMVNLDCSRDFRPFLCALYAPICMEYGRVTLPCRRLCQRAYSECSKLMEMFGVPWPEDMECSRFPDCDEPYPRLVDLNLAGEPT
Assay summary: flow cytometry, CHO-CRD cells;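 further: flow cytometry of Fab binding to CHO cells overexpressing a Frizzled CRD, with binding defined as median fluorescence over twice that of CHO cells lacking any Frizzled CRD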
Value kind: median fluorescence

Fab-2922 (Fab, V domains shown, Fab; also called Fv-2922) VH: EVQLVESGGGLVQPGGSLRLSCAASGFNIYSSYMHWVRQAPGKGLEWVASISPYSGYTSYADSVKGRFTISADTSKNTAYLQMNSLRAEDTAVYYCARTVRGSKKPYFSGWAMDYWGQGTLVTVSS VL: DIQMTQSPSSLSASVGDRVTITCRASQSVSSAVAWYQQKPGKAPKLLIYSASSLYSGVPSRFSGSRSGTDFTLTISSLQPEDFATYYCQQSFVYPYLITFGQGTKVEIK
4.1
Fab-2915 (Fab, V domains shown, Fab; also called Fv-2915) VH: EVQLVESGGGLVQPGGSLRLSCAASGFNIYYYSMHWVRQAPGKGLEWVASIYSSYGYTSYADSVKGRFTISADTSKNTAYLQMNSLRAEDTAVYYCARGYHYYPYYSGLDYWGQGTLVTVSS VL: DIQMTQSPSSLSASVGDRVTITCRASQSVSSAVAWYQQKPGKAPKLLIYSASSLYSGVPSRFSGSRSGTDFTLTISSLQPEDFATYYCQQAYYHSLITFGQGTKVEIK
5.05
Fab-2902 (Fab, V domains shown, Fab; also called Fv-2902) VH: EVQLVESGGGLVQPGGSLRLSCAASGFNISYYYIHWVRQAPGKGLEWVASISSSSSSTSYADSVKGRFTISADTSKNTAYLQMNSLRAEDTAVYYCARGALDYWGQGTLVTVSS VL: DIQMTQSPSSLSASVGDRVTITCRASQSVSSAVAWYQQKPGKAPKLLIYSASSLYSGVPSRFSGSRSGTDFTLTISSLQPEDFATYYCQQWYAFGALITFGQGTKVEIK
6.44
